Parameter: pIC50. Scope: all listed entries.
# system.under.test: E. coli gyrase (Escherichia coli, UniProt P0AES4+P0AES6)
# assay: Gyrase-catalysed supercoiling
# conditions.used: E. coli gyrase; read-out: IC50 for gyrase-catalyzed supercoiling
pIC50: −log10 of the molar value.

>>> value_observed("CCn1cc(C(=O)O)c(=O)c2cnc(N3CCN(C(=S)NCc4ccccc4)CC3)nc21 [Compound 36]")
"> 3.70"

Next up:
Query: Look up pIC50: CCn1cc(C(=O)O)c(=O)c2cnc(N3CCN(C(=S)Nc4ccccc4)CC3)nc21 [Compound 30]
Response: > 3.70

* * *

Parameter: activity at 200 µM. Scope: all listed entries.
# Test system: E. coli Hfr recombination
# assay: E. coli Hfr recombination (RecBCD pathway, strain V66 x V1306)
# conditions.used: Escherichia coli, read-out: Relative recombinant frequency, E. coli Hfr recombination at 200 μM compound, 200 μM; experiment 2 (second value); percentage of that without compound (8.9%)
Write the answer as a number in %, unit excluded.

Here is how some compounds turned out for activity at 200 µM.
>>> value_observed("C=CCn1c(Sc2ncc([N+](=O)[O-])s2)n[nH]c1=O")
0.3
>>> value_observed("O=C(Nc1ccc(N2CCOCC2)cc1)c1ccc([N+](=O)[O-])o1")
54
>>> value_observed("CCn1cc(C(=O)O)c(=O)c2cnc(N3CCNCC3)nc21 [Compound 2, pipemidic acid, reference compound]")
0.4
>>> value_observed("CC(=O)Nc1ccc2nc(NC(=O)c3ccc([N+](=O)[O-])o3)sc2c1")
51

Next up:
Query: Please state recorded activity at 200 µM (tested on E. coli Hfr recombination) of NC(=O)c1ccsc1NC(=O)COC(=O)c1ccc([N+](=O)[O-])o1
Response: 73
